test system: HL-60(TB) leukemia; experiment: NCI tumour cell line growth inhibition, 48 h
For each record, write down the corresponding TGI.

Worked examples follow.
>>> observed("CC(C)(C)c1nnc2n(c1=O)N=CC(c1ccc(Br)cc1)S2 (stereo unspecified)")
"> 100 µM"
>>> observed("Cc1ccc(-n2c(-c3ccc(Cl)cc3)cs/c2=N\\NC(=O)COc2n[nH]c(=O)c3ccccc23)cc1")
"> 100 µM"
>>> observed("O=C1/C(=C2\\SCC(=O)N2c2ccccc2)SC(=S)N1c1ccccc1")
"> 100 µM"
>>> observed("C=CCNc1cccc2c1C(=O)c1ccccc1C2(O)CC=C (stereo unspecified)")
"> 100 µM"
>>> observed("CC(C)(C)C(=O)OCC(COC(=O)C(C)(C)C)[N+](=O)[O-]")
"79.8 µM"
>>> observed("COc1cc(/C=C2\\CCc3ccccc3C2=O)cc(OC)c1OC")
"45.5 µM"

// for each compound in input: emit TGI
1. COc1cc(/C=C/C(=O)c2cc(OC)c(OC)c(OC)c2)cc(OC)c1OC
2. CCCCCCCCCC(=O)N[C@H]1CCc2cc(OC)c(OC)c(OC)c2-c2ccc(SC)c(=O)cc21
3. COc1ccc(S(=O)(=O)N/N=C(\C)CN2C(=O)c3ccccc3C2=O)cc1
4. Nc1ccc(-c2nc3cc(F)ccc3s2)cc1
5. CC(=O)C(C(=O)C(C)(C)C)C(=O)C(C)(C)C
6. CN(C)/C=N/S(=O)(=O)c1nn2c(C=O)c(-c3cc4ccccc4oc3=O)nc2s1
7. CCCCC(=O)OC[n+]1ccc2c(C)c3[nH]c4ccc(OC)cc4c3c(C)c2c1

Result:
1: 11.2 µM; 2: 0.223 µM; 3: > 100 µM; 4: > 100 µM; 5: > 100 µM; 6: 4.05 µM; 7: > 100 µM

// for each compound in input: emit TGI
1. COc1ccc(N2C(=O)C3c4[nH]c5ccccc5c4C4CCC(C(C)(C)C)CC4C3C2=O)cc1OC (stereo unspecified)
2. O=C1C=C(Nc2nc(C(=O)O)cc(=O)[nH]2)c2ccccc2C1=O
3. C=CCc1cccc2cc(C(=O)Nc3nc(C45CC6CC(CC(C6)C4)C5)cs3)c(=O)oc12

Result:
1: > 100 µM; 2: > 100 µM; 3: > 100 µM

* * *

For each record, write down the corresponding TGI.
tested on: OVCAR-3 ovarian; experiment: NCI tumour cell line growth inhibition, 48 h

Worked examples follow.
>>> observed("CC1=N/C(=C\\c2ccc([N+](=O)[O-])cc2)C(=O)O1")
"> 100 µM"
>>> observed("CCOC(=O)C1=CN(C(=O)c2ccccc2)CCC1Cc1ccccc1 (stereo unspecified)")
"> 100 µM"
>>> observed("Clc1ccc(Nc2nc3ccccc3c3occc23)cc1")
"12.1 µM"

// for each compound in input: emit TGI
1. COc1ccc(S(=O)(=O)N/N=C(\C)CN2C(=O)c3ccccc3C2=O)cc1
2. NCC(=O)CCC(=O)O
3. C=C(C(=O)OC)[C@@H]1C[C@@H](O)[C@]2(C)CC/C=C(\C)CCC[C@H](C)[C@H](O)C1O2
4. CN(/N=C/c1ccc(Cl)c(Cl)c1)C1=NCCN1

Result:
["> 100 µM", "> 100 µM", "92.7 µM", "> 100 µM"]

Taken from PubChem BioAssay (NCI).
